- PROTOCOL_SUMMARY: Solubility of the salt-forming type dyes (Tables 1-3)
- Assay type: physicochemical
- PARTICULARS: Water:Solvent = 2:8
MEASUREMENT_TYPE: Solubility, Water:Solvent = 2:8 (g/100 ml)

What value of measured Solubility, Water:Solvent = 2:8 is listed for O=P(O)(O)c1cccc(N=Nc2ccc(N=Nc3c(O)ccc4cc(S(=O)(=O)O)cc(S(=O)(=O)O)c34)cc2)c1 ?
30

P = Nc1cc(N=Nc2cccc(P(=O)(O)O)c2)c2c(O)cc(S(=O)(=O)O)cc2c1N=Nc1cccc(P(=O)(O)O)c1
Q = Nc1ccc2cc(S(=O)(=O)O)c(N=Nc3ccc(N=Nc4cccc(P(=O)(O)O)c4)c4ccc(S(=O)(=O)O)cc34)c(O)c2c1 [Black No. 8]
Between P and Q , which one shows the smaller Solubility, Water:Solvent = 2:8 number? Indicate which entry you chose by stating its label.
Q
(Q: 20 g/100 ml, P: 30 g/100 ml)

* * *

- PROTOCOL_SUMMARY: Solubility of the salt-forming type dyes (Tables 1-3)
- Assay type: physicochemical
- PARTICULARS: solvent: glycol ether
MEASUREMENT_TYPE: Solubility, Glycol ether (g/100 ml)

See these solved cases before continuing.
What value of measured Solubility, Glycol ether is listed for O=P(O)(O)c1cccc(N=Nc2ccc(N=Nc3c(O)ccc4cc(S(=O)(=O)O)cc(S(=O)(=O)O)c34)cc2)c1 ?
20

What value of measured Solubility, Glycol ether is listed for Nc1ccc2cc(S(=O)(=O)O)cc(O)c2c1N=Nc1cc(S(=O)(=O)O)cc2cc(S(=O)(=O)O)c(N=Nc3cccc(P(=O)(O)O)c3)c(O)c12 ?
20

What value of measured Solubility, Glycol ether is listed for Nc1ccc2cc(S(=O)(=O)O)c(N=Nc3ccc(N=Nc4cccc(P(=O)(O)O)c4)c4ccc(S(=O)(=O)O)cc34)c(O)c2c1 [Black No. 8] ?
30

What value of measured Solubility, Glycol ether is listed for COc1cc(N=Nc2cccc(P(=O)(O)O)c2)c(C)cc1N=Nc1c(S(=O)(=O)O)cc2ccc(N)cc2c1O [Black No. 2] ?
15

What value of measured Solubility, Glycol ether is listed for Nc1cc(S(=O)(=O)O)cc2cc(S(=O)(=O)O)c(N=Nc3ccc(N=Nc4cccc(P(=O)(O)O)c4)c4ccc(O)cc34)c(O)c12 ?
25

What value of measured Solubility, Glycol ether is listed for Nc1cc2c(O)c(N=Nc3ccc(N=Nc4cccc(P(=O)(O)O)c4)c4ccc(S(=O)(=O)O)cc34)c(S(=O)(=O)O)cc2cc1S(=O)(=O)O [Black No. 4] ?
30

P = Nc1c(N=Nc2cccc(P(=O)(O)O)c2)c(S(=O)(=O)O)cc2cc(S(=O)(=O)O)c(N=Nc3cccc(P(=O)(O)O)c3)c(O)c12
Q = COc1cc(N=Nc2cccc(P(=O)(O)O)c2)c(C)cc1N=Nc1c(S(=O)(=O)O)cc2ccc(N)cc2c1O [Black No. 1]
R = CC1(C)Nc2cccc3c(N=Nc4cc(S(=O)(=O)O)cc5cc(S(=O)(=O)O)c(N=Nc6cccc(P(=O)(O)O)c6)c(O)c45)ccc(c23)N1
Arrange these molecules by their Solubility, Glycol ether, starting with the largest number. Show the ranking through the labels, in the order asked for.
P, R, Q
(P: 25 g/100 ml, R: 15 g/100 ml, Q: 10 g/100 ml)
